B1: PBXIP1 (parent)
chain: FGEDGIFRHDRLRFRDFVDALEDS

Variants of: B1
EXPERIMENT SUMMARY: protein stability index of a GFP-peptide fusion (GPS, HEK-293T) (PSI 1-6); higher = more stable;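 note: lentivirally expressed fusions sorted by FACS into six bins by GFP to DsRed ratio, PSI derived from sequencing read proportions per bin multiplied by bin number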
PARTICULARS: c terminus: a fixed tail appended
PARAMETER MEASURED: protein stability index

- INPUT SEQUENCE: "FGEDGIFRHDRLRFRDFSDALEDS [V18S]"
  REPORTED: 3.11
- INPUT SEQUENCE: "FGEDGIFRHDRLRFRDFVDALKDS [E22K]"
  REPORTED: 2.08
- INPUT SEQUENCE: "FGEDGIFRHDRLRFRVFVDALEDS [D16V]"
  REPORTED: 2.43
- INPUT SEQUENCE: "CGEDGIFRHDRLRFRDFVDALEDS [F1C]"
  REPORTED: 2.39
- INPUT SEQUENCE: "FGEDGIQRHDRLRFRDFVDALEDS [F7Q]"
  REPORTED: 3.36
- INPUT SEQUENCE: "FGEDGIFRHDRLRFRCFVDALEDS [D16C]"
  REPORTED: 3.01
- INPUT SEQUENCE: "FGEDGIFRHDRLRFRDFVRALEDS [D19R]"
  REPORTED: 2.48
- INPUT SEQUENCE: "FGEDGIFRHDRLRFRDFVCALEDS [D19C]"
  REPORTED: 2.47
- INPUT SEQUENCE: "FGEDGIFRHDRLRFRDFVDALGDS [E22G]"
  REPORTED: 2.05
- INPUT SEQUENCE: "FGEDGIFRHDRLRPRDFVDALEDS [F14P]"
  REPORTED: 3.01
- INPUT SEQUENCE: "FGEDGIFRHDRLRFRDFVDAYEDS [L21Y]"
  REPORTED: 3.18
- INPUT SEQUENCE: "FGEDGIFRADRLRFRDFVDALEDS [H9A]"
  REPORTED: 2.84
- INPUT SEQUENCE: "FGEDGIFRHDRLHFRDFVDALEDS [R13H]"
  REPORTED: 2.57
- INPUT SEQUENCE: "FGEDGIFRHDRLRFRDFVDFLEDS [A20F]"
  REPORTED: 2.38
- INPUT SEQUENCE: "FGEDGIFRHDRPRFRDFVDALEDS [L12P]"
  REPORTED: 2.43
- INPUT SEQUENCE: "FGEDGIFRHDRLRFRDFVDAREDS [L21R]"
  REPORTED: 3.01
- INPUT SEQUENCE: "FGEDGIFRHDRLRFEDFVDALEDS [R15E]"
  REPORTED: 3.61
- INPUT SEQUENCE: "FGEDGIFRHDRLRFRDFVDALESS [D23S]"
  REPORTED: 2.22
- INPUT SEQUENCE: "FGEDGIFRHDCLRFRDFVDALEDS [R11C]"
  REPORTED: 2.73
- INPUT SEQUENCE: "FGEDPIFRHDRLRFRDFVDALEDS [G5P]"
  REPORTED: 3.37
- INPUT SEQUENCE: "FGEDGIFRHDMLRFRDFVDALEDS [R11M]"
  REPORTED: 2.44
- INPUT SEQUENCE: "FGEDGIFRHDRLRFRDFVDDLEDS [A20D]"
  REPORTED: 3.23
- INPUT SEQUENCE: "FGEDGIFRHDRVRFRDFVDALEDS [L12V]"
  REPORTED: 2.65
- INPUT SEQUENCE: "FGEDGIFRHDRLRFRDFVDALYDS [E22Y]"
  REPORTED: 2.11
- INPUT SEQUENCE: "FGERGIFRHDRLRFRDFVDALEDS [D4R]"
  REPORTED: 2.74
- INPUT SEQUENCE: "FGEDGIFRHPRLRFRDFVDALEDS [D10P]"
  REPORTED: 1.85
- INPUT SEQUENCE: "FGEKGIFRHDRLRFRDFVDALEDS [D4K]"
  REPORTED: 1.82
- INPUT SEQUENCE: "FGEDGIFRHDRLRFRDFVDALEDY [S24Y]"
  REPORTED: 1.78
- INPUT SEQUENCE: "FGEDGIFRHDRLRFRKFVDALEDS [D16K]"
  REPORTED: 1.99
- INPUT SEQUENCE: "FGEDGIVRHDRLRFRDFVDALEDS [F7V]"
  REPORTED: 3.72
- INPUT SEQUENCE: "FGEDGIERHDRLRFRDFVDALEDS [F7E]"
  REPORTED: 4.84
- INPUT SEQUENCE: "FGEDGIFRHDRLRFRDFVDALEVS [D23V]"
  REPORTED: 2.29
- INPUT SEQUENCE: "FGFDGIFRHDRLRFRDFVDALEDS [E3F]"
  REPORTED: 2.18
- INPUT SEQUENCE: "FGEDGIFRHDRLRFRDFVDPLEDS [A20P]"
  REPORTED: 3.06
